TESTED TARGET: UniProt:Q8NB16
Sequence (Q8NB16 whole entry): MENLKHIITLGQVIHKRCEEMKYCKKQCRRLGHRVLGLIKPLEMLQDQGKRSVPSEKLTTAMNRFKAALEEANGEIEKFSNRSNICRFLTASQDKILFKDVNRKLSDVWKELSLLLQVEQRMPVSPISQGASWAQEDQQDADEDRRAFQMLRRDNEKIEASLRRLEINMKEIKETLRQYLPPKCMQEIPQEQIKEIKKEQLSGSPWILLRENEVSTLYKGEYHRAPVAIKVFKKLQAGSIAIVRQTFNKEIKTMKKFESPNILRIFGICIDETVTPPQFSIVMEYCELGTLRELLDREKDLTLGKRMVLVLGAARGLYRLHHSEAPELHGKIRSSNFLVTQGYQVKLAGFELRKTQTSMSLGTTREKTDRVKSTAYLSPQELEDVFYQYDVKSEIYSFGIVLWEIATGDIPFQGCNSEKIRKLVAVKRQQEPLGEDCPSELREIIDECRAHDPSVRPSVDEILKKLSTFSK
ASSAY REMARKS: KINOMEscan binding assay, MLKL (full length)
ASSAY CONTEXT: Table 36

| MOL SMILES | Kd |
| --- | --- |
| CCS(=O)(=O)Nc1ccc(-c2n[nH]c(Nc3ccc(C(=O)OCCCC(=O)N[C@H](C(=O)N4C[C@H](O)C[C@H]4C(=O)NCc4ccc(-c5scnc5C)cc4)C(C)(C)C)cn3)c2C(N)=O)cc1O[C@@H](C)c1ccc(F)cc1 | < 10 nM |
| Cc1ncsc1-c1ccc(CNC(=O)[C@@H]2C[C@@H](O)CN2C(=O)[C@@H](NC(=O)CCCCOc2ccc(Nc3[nH]nc(-c4ccc(NS(=O)(=O)C(F)F)cc4)c3C(N)=O)nc2)C(C)(C)C)cc1 | < 10 nM |
